B1: 2M8U (parent)
chain: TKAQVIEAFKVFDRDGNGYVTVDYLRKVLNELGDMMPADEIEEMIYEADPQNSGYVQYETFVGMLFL

- Variants of: B1
- assay.text: folding stability dG (cDNA display proteolysis); higher = more stable
- condition.label: PBS, room temperature
Answer -1 if folding stability dG is under 3 kcal/mol, and 1 if it is 3 kcal/mol or more.

Below are worked cases with known answers.
Quick check: does I6H have folding stability dG greater than or equal to 3 kcal/mol?
-1

Thanks! And V56A ?
-1

Next:
Decide: folding stability dG of A38M >= 3 kcal/mol?
1

// same read-out, input: V56W
-1

Next variant: D49P
-1

And E47R ?
1

Again, but for F66I
-1
